Source listed as patent EP0719251B1.

Target: gastrin (Rattus norvegicus, UniProt P30553)
Construct: The stomach was excised and flushed with ca. 1 ml of unbuffered physiological saline solution; from tissue; host or cells: isolated whole stomach of immature rats (33-50 g, ca. 21 days old)
Sequence (P30553 whole entry): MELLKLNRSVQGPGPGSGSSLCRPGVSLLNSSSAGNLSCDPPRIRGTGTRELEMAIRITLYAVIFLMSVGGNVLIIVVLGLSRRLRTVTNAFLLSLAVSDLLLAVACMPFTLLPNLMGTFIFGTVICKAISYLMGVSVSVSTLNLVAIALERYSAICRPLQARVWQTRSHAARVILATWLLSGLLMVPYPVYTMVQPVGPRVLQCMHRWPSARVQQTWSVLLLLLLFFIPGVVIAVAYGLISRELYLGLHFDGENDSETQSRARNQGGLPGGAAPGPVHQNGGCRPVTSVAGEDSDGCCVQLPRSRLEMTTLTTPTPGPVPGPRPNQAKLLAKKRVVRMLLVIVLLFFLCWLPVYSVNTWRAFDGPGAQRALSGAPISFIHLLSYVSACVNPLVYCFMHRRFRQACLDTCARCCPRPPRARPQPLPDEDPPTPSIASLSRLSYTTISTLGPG
Experiment: gastrin antagonist activity in an immature rat stomach assay
Details: isolated immature rat stomach, cumulative pentagastrin dose-response curves, acid secretion; read-out: Gastrin pKB (converted)
Method: The compounds of the examples were also tested for gastrin antagonist activity in an immature rat stomach assay. The procedure was as follows: The oesophagus of immature rats (33-50 g, ca. 21 days old) was ligated at the level of the cardiac sphincter and the duodenal sphincter was cannulated. The stomach was excised and flushed with ca. 1 ml of unbuffered physiological saline solution. The fundus was punctured and cannulated. […]
Exercise: for every item that follows, state its recorded Kb.

Return Kb (reported value) for this molecule: O=C(O)c1cc(CNC(=O)[C@H](Cc2ccccc2)NC(=O)C2C3c4ccccc4C(c4ccccc43)C2C(=O)NCC23CC4CC(CC(C4)C2)C3)cc(C(=O)O)c1 (single isomer, unassigned) [Example 62] 0.0631 µM

Return Kb (reported value) for this molecule: O=C(O)c1cc(NC(=O)[C@H](Cc2ccc(O)cc2)NC(=O)C2C3c4ccccc4C(c4ccccc43)C2C(=O)NCC23CC4CC(CC(C4)C2)C3)cc(C(=O)O)c1 (single isomer, unassigned) [Example 25] 0.0631 µM

Return Kb (reported value) for this molecule: O=C(O)c1cc(NC(=O)[C@H](Cc2ccccc2)NC(=O)C2C3c4ccccc4C(c4ccccc43)C2C(=O)NCC2CCCCCC2)cc(C(=O)O)c1 (single isomer, unassigned) [Example 29] 0.1 µM

Return Kb (reported value) for this molecule: O=C(O)c1cc(NC(=O)[C@H](Cc2cccs2)NC(=O)C2C3c4ccccc4C(c4ccccc43)C2C(=O)NCC23CC4CC(CC(C4)C2)C3)cc(C(=O)O)c1 (single isomer, unassigned) 0.251 µM

Return Kb (reported value) for this molecule: O=C(O)c1cc(NC(=O)[C@H](Cc2ccc(Cl)cc2)NC(=O)C2C3c4ccccc4C(c4ccccc43)C2C(=O)NCC23CC4CC(CC(C4)C2)C3)cc(C(=O)O)c1 (single isomer, unassigned) [Example 11] 0.1 µM
